test system: PUCCINIA RECONDITA (WHEAT); assay: Foliar fungal disease test on plants (foliar spray plus root drench), Puccinia recondita on wheat; type: in vivo; settings: 100 ppm active ingredient sprayed on foliage, root drench approximately 40 ppm a.i./dry soil; applied one or two days before inoculation
reported-property: disease control grading, PUCCINIA RECONDITA (WHEAT)

Which measured disease control grading, PUCCINIA RECONDITA (WHEAT) belongs to CC(C)(C)c1ccc(C2CC2CC2CCNCC2)cc1 (stereo not shown) , tested on PUCCINIA RECONDITA (WHEAT)?
4 (4 = no disease)
